- Test system: seasonal 2007 H1N1 influenza A virus
- Method: microbe, parasite or virus in culture
- Assay type: cell-based
- Condition Context: flavonoids; MDCK cells, 3 days; read-out: Plaque inhibition IC50 values, Seasonal 2007 H1N1

{"columns": ["Smiles Repr", "IC50"],
 "data": [
  ["O=c1cc(-c2ccc(O)cc2)oc2cc(O)cc(O)c12", "120 µM"]
]}

* * *

- Measurement Target: NA of PR8 H1N1 influenza A virus (Influenza A virus, UniProt P03468)
- Sequence (P03468 whole entry): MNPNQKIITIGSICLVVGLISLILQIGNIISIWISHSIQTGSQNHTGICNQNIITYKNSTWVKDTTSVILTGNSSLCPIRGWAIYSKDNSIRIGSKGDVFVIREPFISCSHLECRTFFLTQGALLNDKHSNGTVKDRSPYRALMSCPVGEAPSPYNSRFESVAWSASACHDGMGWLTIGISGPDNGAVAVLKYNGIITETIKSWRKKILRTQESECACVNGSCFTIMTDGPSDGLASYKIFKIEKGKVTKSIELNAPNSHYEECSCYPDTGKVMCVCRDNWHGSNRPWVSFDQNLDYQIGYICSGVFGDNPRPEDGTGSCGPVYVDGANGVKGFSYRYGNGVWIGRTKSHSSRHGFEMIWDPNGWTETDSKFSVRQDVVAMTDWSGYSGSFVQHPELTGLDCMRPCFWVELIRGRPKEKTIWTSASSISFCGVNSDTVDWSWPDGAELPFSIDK
- Method: NA enzymatic activity inhibition, fluorometric MUNANA assay
- Format: biochemical, Influenza A/Puerto Rico/8/34 (H1N1)
pIC50: −log10 of the molar value.
Quantity Kind: pIC50

{"columns": ["Smiles Repr", "Measurement Target", "Quantity Kind", "Observed Result"],
 "data": [
  ["O=c1cc(-c2ccc(O)cc2)oc2cc(O)cc(O)c12", "NA of PR8 H1N1 influenza A virus (Influenza A virus, UniProt P03468)", "pIC50", 4.09],
  ["O=c1cc(-c2ccccc2)oc2cc(O)c(O)c(O)c12", "NA of PR8 H1N1 influenza A virus (Influenza A virus, UniProt P03468)", "pIC50", 6.74]
]}
